Values were extracted from the supplement of paper PMC10567573.

B1: SPSB4 (parent)
chain: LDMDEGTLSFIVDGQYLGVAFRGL

Variants of: B1
Assay: protein stability index of a GFP-peptide fusion (GPS, HEK-293T) (PSI 1-6); higher = more stable;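 also: lentivirally expressed fusions sorted by FACS into six bins by GFP to DsRed ratio, PSI derived from sequencing read proportions per bin multiplied by bin number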
Settings: c terminus: a fixed tail appended

| VARIANT | protein stability index |
| --- | --- |
| D2A | 2.04 |
| V12E | 2.01 |
| R22E | 2.05 |
| V19D | 1.99 |
